# assayed.target: Olfr110 (Mus musculus, UniProt A2RT31)
# Construct: Full-length odorant receptor genes from mouse and human genomic DNAs were amplified using appropriate primers; Lucy (N); Flag (N); Rho (N)
# Sequence (A2RT31 1-317): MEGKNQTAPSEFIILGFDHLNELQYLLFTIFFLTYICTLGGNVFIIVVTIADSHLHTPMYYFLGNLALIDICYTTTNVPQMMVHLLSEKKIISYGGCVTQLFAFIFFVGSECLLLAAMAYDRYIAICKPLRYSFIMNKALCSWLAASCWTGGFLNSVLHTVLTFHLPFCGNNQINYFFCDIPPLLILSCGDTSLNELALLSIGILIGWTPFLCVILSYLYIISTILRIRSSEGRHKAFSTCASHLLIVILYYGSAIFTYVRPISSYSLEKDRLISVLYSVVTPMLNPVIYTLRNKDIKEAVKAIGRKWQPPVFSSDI
# assay.info: Luciferase assay in Hana3A cells transfected with Olfr110
# applied.conditions: 2-PF fixed at 300 μM, 2-EF 1 μM to 10 mM; read-out: Kd (competitive activity against 2-PF)
quantity.kind: pKd
Note on pKd: it is the negative log10 of concentration, concentration in mol/L.

Recorded result, CCc1ccco1 , pKd: 3.92

---

# System: primary microglia
# assay.info: Cytokine ELISA of primary microglia
# Assay type: cell-based, mouse
# applied.conditions: inhibitor pretreatment, then 2-PF

{"columns": ["molecule", "Tnf and Il6 cytokine levels after 2-PF"],
 "data": [
  ["COc1ccc2c(c1)CC[C@@H]1[C@@H]2CC[C@]2(C)[C@@H](NCCCCCCN3C(=O)C=CC3=O)CC[C@@H]12 [U73122, reference compound]", "relatively less decrease"],
  ["Nc1ncnc2c1ncn2C1CCCO1 (stereo not shown)", "great decrease"],
  ["O=S(=O)(NCCNC/C=C/c1ccc(Br)cc1)c1cccc2cnccc12", "great decrease"],
  ["COc1cccc(-c2cc(=O)c3ccccc3o2)c1N", "relatively less decrease"]
]}

Data provenance: patent US12265087B2
